# System: SK-OV-3
# Assay Procedure: NCI tumour cell line growth inhibition, 48 h
Activity calls are given as the source filed them. Cut-off read from the data, not from the text of the source: active = GI50 up to about 1.1 µM and inactive = higher.
For each entry below, report its GI50 value.

Request the reported GI50 associated with O=C1C2C=CC1C1C(=O)OC(=O)C21 (stereo unspecified)
> 100 µM (inactive)

Request the reported GI50 associated with O=C(c1ccccc1)c1ccc2[nH]c(-c3c(Cl)c(Cl)c(Cl)c(Cl)c3C(=O)N/N=C/c3cccc(Oc4ccccc4)c3)nc2c1
> 100 µM (inactive)

Request the reported GI50 associated with Cc1[nH]nc2c1C(=O)C=C(N(CCO)c1ccccc1)C2=O
> 100 µM (inactive)

Request the reported GI50 associated with COc1ccc2oc(=N)c(C(N)=S)cc2c1
33.2 µM (inactive)

Request the reported GI50 associated with C=CC(Br)(CBr)CCC(Br)C(C)(C)Cl (stereo unspecified)
16.3 µM (inactive)

Request the reported GI50 associated with CS/C(C)=N/OC(=O)NCCCCNc1ccc(N=[N+]=[N-])cc1
37.9 µM (inactive)

Request the reported GI50 associated with C=C1CC/C=C(/C(=O)O)CC[C@H]2[C@@H]1CC2(C)C
> 100 µM (inactive)

Request the reported GI50 associated with CN(N=O)c1ccc(/C=C/c2ccnc3ccccc23)cc1
> 100 µM (inactive)

Request the reported GI50 associated with NC(=O)c1ccccc1NC(=O)C(=O)C(C(=O)c1ccc2ccccc2c1)C1OC(=O)c2ccccc21 (stereo unspecified)
14.6 µM (inactive)

Request the reported GI50 associated with Cc1ccc(O)c(-c2csc(NCN3CCN(CNc4nc(-c5cc(C)ccc5O)cs4)CC3)n2)c1
> 100 µM (inactive)

Request the reported GI50 associated with COc1cc(C(=O)Nc2cccc3ccccc23)c(Br)c(OC)c1OC
> 100 µM (inactive)

The measured values listed here are drawn from ChEMBL document CHEMBL1201862.
